- System: MAPK p38 phosphorylation
- Experimental protocol: MAPK p38 Activation Assay (western blot), Panc-1
- Type: cell-based, human
- Conditions used: at 10 μM, Panc-1 pancreatic cancer cell line; starred symbols = activation
Reported property: % inh of MAPK p38 in Panc-1

[
  {
    "Molecule": "COCCNc1nc(-c2nccn2C)nn2cc(-c3ccncc3)c(-c3ccccc3)c12 [Compound 202]",
    "Result": "E (E = 1-30% inhibition)"
  },
  {
    "Molecule": "CO[C@H]1CC[C@H](Nc2nc(-c3nccn3C)nn3cc(-c4ccncc4)c(-c4ccccc4)c23)C1 (racemic) [Compound 201]",
    "Result": "E (E = 1-30% inhibition)"
  },
  {
    "Molecule": "CO[C@H]1C[C@H](Nc2nc(-c3nccn3C)nn3cc(-c4cccc(CN)c4)c(-c4ccccc4)c23)C1 [Compound 204]",
    "Result": "E (E = 1-30% inhibition)"
  }
]

###

- System tested: Rac-1 (Homo sapiens)
- Construct: made in house
- Experimental protocol: Ras GTP Binding Domain Inhibition Assay (Ras Superfamily Assay)
- Conditions used: read-out: Rac-1: % inh.
Reported property: inhibition at 20 µM

Item CCc1nc(Nc2nc(-c3nccn3C)nn3cc(-c4ccn(C(C)C)n4)c(C)c23)nn1C has what recorded inhibition at 20 µM? 50 to 75%

And the next one, Cc1c(-c2ccn(C(C)C)n2)cn2nc(-c3nccn3C)nc(Nc3cc(C4CC4)n[nH]3)c12 ? 76 to 100%

And the next one, Cc1c(-c2ccn(C)n2)cn2nc(-c3nccn3C)nc(Nc3cc[nH]n3)c12 ? 76 to 100%

And the next one, COCc1csc(Nc2nc(-c3nccn3C)nn3cc(-c4ccn(C(C)C)n4)c(C)c23)n1 ? 76 to 100%

And the next one, CO[C@H]1C[C@@H](Nc2nc(-c3nccn3C)nn3cc(-c4ccncc4)c(-c4ccccc4)c23)C1 ? 26 to 49%

And the next one, CCc1nc(Nc2nc(-c3nccn3C)nn3cc(-c4ccn(C)n4)c(C)c23)nn1C ? 76 to 100%

And the next one, Cc1c(-c2ccn(C3CC3)n2)cn2nc(-c3nccn3C)nc(Nc3cc(OCCCO)ccn3)c12 ? 76 to 100%

And the next one, Cc1c(-c2ccn(C)n2)cn2nc(-c3nccn3C)nc(Nc3cn(C(C)C)nn3)c12 ? 76 to 100%

And the next one, COc1ncccc1Nc1nc(-c2nccn2C)nn2cc(-c3ccn(C(C)C)n3)c(C)c12 ? 0%

And the next one, Cc1c(-c2ccn(C)n2)cn2nc(-c3nccn3C)nc(Nc3cc(-c4ccccn4)ccn3)c12 ? 76 to 100%

And the next one, COc1cccc(Nc2nc(-c3nccn3C)nn3cc(-c4ccn(C(C)C)n4)c(C)c23)n1 ? 0%

And the next one, CCOc1ccnc(Nc2nc(-c3nccn3C)nn3cc(-c4ccn(C5CC5)n4)c(C)c23)c1 ? 76 to 100%

And the next one, COc1ccnc(Nc2nc(-c3nccn3C)nn3cc(-c4cccnc4)c(C)c23)n1 ? 76 to 100%

And the next one, Cn1ccnc1-c1nc(O)c2c(-c3ccccc3)ccn2n1 ? 0%

And the next one, COc1cccc(-c2cn3nc(-c4nccn4C)nc(N[C@H]4C[C@@H](OC)C4)c3c2-c2ccccc2)c1Cl ? 1 to 25%

And the next one, COc1cccc(-c2cn3nc(-c4nccn4C)nc(N[C@@H]4CC[C@H](OC)C4)c3c2-c2ccccc2)c1C (racemic) ? 26 to 49%
